- system.name: T1, Recombinant Human DLL4 (human, UniProt Q9NR61 27-524)
- T1 construct: Bought recombinant human DLL4 (R&D Systems Cat#1506-D4/CF); also called delta-like protein 4; Delta-like 4
- procedure.summary: ELISA, DLL4 coated on the plate, Fab at 100 nM, signal minus blank
reported.property: ELISA Signal-blank (100 nM Fab)
Please respond with just the number, no unit label.

response.value for Fab VH5-51_IGHD5-18*01>3_IGHJ4*01 G100K/G104T G24T/S28R/G35V (H:KT TRV) & V3-4_IGLJ1*01 V91E (Fab, V domains shown, Fab; expressed from plasmid A (CH1, His6 and Flag tags) and plasmid E (lambda CL)) VH: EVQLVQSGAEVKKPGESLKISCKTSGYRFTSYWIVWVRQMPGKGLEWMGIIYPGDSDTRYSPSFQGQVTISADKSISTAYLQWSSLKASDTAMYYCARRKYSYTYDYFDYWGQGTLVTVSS VL: QTVVTQEPSFSVSPGGTVTLTCGLSSGSVSTSYYPSWYQQTPGQAPRTLIYSTNTRSSGVPDRFSGSILGNKAALTITGAQADDESDYYCELYMGSGISYVFGTGTKVTVL (field: ELISA Signal-blank (100 nM Fab)) = 0.152

response.value for Fab VH5-51_IGHD5-18*01>3_IGHJ4*01 G100K/G104T G24T/S28R/G35V (H:KT TRV) & V3-4_IGLJ1*01 M94N (Fab, V domains shown, Fab; expressed from plasmid A (CH1, His6 and Flag tags) and plasmid E (lambda CL)) VH: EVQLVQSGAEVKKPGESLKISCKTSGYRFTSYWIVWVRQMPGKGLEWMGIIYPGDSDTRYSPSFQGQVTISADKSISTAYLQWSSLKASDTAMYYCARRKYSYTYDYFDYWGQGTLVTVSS VL: QTVVTQEPSFSVSPGGTVTLTCGLSSGSVSTSYYPSWYQQTPGQAPRTLIYSTNTRSSGVPDRFSGSILGNKAALTITGAQADDESDYYCVLYNGSGISYVFGTGTKVTVL (field: ELISA Signal-blank (100 nM Fab)) = 0.205

response.value for Fab VH5-51_IGHD5-18*01>3_IGHJ4*01 G100K/G104T G24T/S28R/G35V (H:KT TRV) & V3-4_IGLJ1*01 M94P (Fab, V domains shown, Fab; expressed from plasmid A (CH1, His6 and Flag tags) and plasmid E (lambda CL)) VH: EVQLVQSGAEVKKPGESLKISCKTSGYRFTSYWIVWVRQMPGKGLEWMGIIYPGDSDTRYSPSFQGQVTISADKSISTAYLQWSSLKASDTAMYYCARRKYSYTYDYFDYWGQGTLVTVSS VL: QTVVTQEPSFSVSPGGTVTLTCGLSSGSVSTSYYPSWYQQTPGQAPRTLIYSTNTRSSGVPDRFSGSILGNKAALTITGAQADDESDYYCVLYPGSGISYVFGTGTKVTVL (field: ELISA Signal-blank (100 nM Fab)) = 0.256
